Origin of values: paper PMC12723578

- TARGET_OR_TEST_SYSTEM: SARS‐CoV‐2 M^pro (Severe acute respiratory syndrome coronavirus 2)
- TEST_DETAILS: Screening of M^pro inhibition at 10 and 50 µM (fluorogenic substrate Boc‐Abu‐Tle‐Leu‐Gln‐AMC)
- Assay type: biochemical
- ASSAY_CONDITIONS: read-out: Inhibition @ [I] = 10 µM (%)
QUANTITY: inhibition at 10 µM (%)
I only need the number, in %, no unit after it.

Reported inhibition at 10 µM ( CN(NC(=O)[C@H](Cc1ccccc1)NC(=O)OCc1ccccc1)C(=O)C(F)Cl (some centres unmarked) [Compound 8] ) = 10

Reported inhibition at 10 µM ( CN(NC(=O)[C@H](Cc1ccccc1)NC(=O)OCc1ccccc1)C(=O)C(F)(F)Cl [Compound 9] ) = 9

Reported inhibition at 10 µM ( COC(=O)/C=C(\C(=O)OC)N(C)NC(=O)[C@H](Cc1ccccc1)NC(=O)OCc1ccccc1 [Compound 2] ) = 1

Reported inhibition at 10 µM ( COC(=O)/C=C/N(C)NC(=O)[C@H](Cc1ccccc1)NC(=O)OCc1ccccc1 [Compound 1] ) = 4

Reported inhibition at 10 µM ( CN(CC#N)NC(=O)[C@H](Cc1ccccc1)NC(=O)OCc1ccccc1 [Compound 10] ) = 10
